# Experimental Protocol: Permeability from Caco-2 cells (transport assay)
# Type: in vitro ADME
# Run Parameters: human; Caco-2 monolayers, transport medium pH 7.4, samples at 60 and 120 min
Quantity: Papp at 120 min, 10 μM (×10⁻⁶ cm/s)
Numbers only, in ×10⁻⁶ cm/s.

Some molecules with recorded Papp at 120 min, 10 μM:
1. CC(C)c1cc(Oc2c(Cl)cc(-n3nc(C#N)c(=O)[nH]c3=O)cc2Cl)nn(COC(=O)CN2CCOCC2)c1=O [Example 12]    1.75
2. CC(C)c1cc(Oc2c(Cl)cc(-n3nc(C#N)c(=O)[nH]c3=O)cc2Cl)nn(COC(=O)CCC(=O)O)c1=O [Example 13]    0.23
3. CC(C)C(=O)OCn1nc(Oc2c(Cl)cc(-n3nc(C#N)c(=O)[nH]c3=O)cc2Cl)cc(C(C)C)c1=O [Example 5]    8.87
4. CC(=O)OCn1nc(Oc2c(Cl)cc(-n3nc(C#N)c(=O)[nH]c3=O)cc2Cl)cc(C(C)C)c1=O [Example 2]    4.58

Required: Papp at 120 min, 10 μM, one value per molecule below.
1. CC(C)c1cc(Oc2c(Cl)cc(-n3nc(C#N)c(=O)[nH]c3=O)cc2Cl)nn(COC(=O)c2cnccn2)c1=O [Example 8]
2. CC(C)c1cc(Oc2c(Cl)cc(-n3nc(C#N)c(=O)[nH]c3=O)cc2Cl)nn(COC(=O)N2CCOCC2)c1=O [Example 6]

[0.92, 1.24]
